- assayExplanation: Aggregation property of the compound in ammonium acetate buffer at pH 7.6 assessed as particle size at 100 uM in presence of Triton X-100 by dynamic light scattering method
- Format: physicochemical
- experimentalParameters: pH 7.6, 100 µM
Field: Activity. Provide a value for each of the compounds that follow.
Answers are plain numbers, in nm.

The following compounds have reported results that may help.
smiles: Cc1ccc(-c2nnc(NC(=O)c3ccc([N+](=O)[O-])o3)o2)c(C)c1
resultValue: 131
//
smiles: O=C(/C=C/c1ccccc1)Nc1nnc(-c2ccc3c(c2)CCCC3)o1
resultValue: 390

Note: attention shifts to another entry.
So what does the record say about Activity for CCOc1ccc(C(=O)Nc2nnc(-c3ccc(C)cc3C)o2)cc1 ?
354

----------
- assayExplanation: Aggregation property of the compound in ammonium acetate buffer at pH 7.6 assessed as light scattering intensity counts at 100 uM in presence of Triton X-100 by dynamic light scattering method
- Type: physicochemical
- experimentalParameters: pH 7.6, 100 µM
Satisfied means recorded Activity is 100 kCounts or above; Not satisfied means it is below 100 kCounts.

Quick check, Activity >= 100 kCounts? CCc1cccc2sc(N(CCCn3ccnc3)C(=O)/C=C/c3cccs3)nc12
Satisfied

----------
- assayExplanation: Aggregation property of the compound in ammonium acetate buffer at pH 7.6 assessed as light scattering intensity counts at 30 uM in absence of Triton X-100 by dynamic light scattering method
- Assay type: physicochemical
- experimentalParameters: pH 7.6, 30 µM
observedProperty: Activity

So what does the record say about Activity for COc1cc(C=O)ccc1OCc1ccccc1COc1ccc(/C=C2/SC(=S)NC2=O)cc1OC ?
30 kCounts

----------
Field: Activity. Provide a value for each of the compounds that follow.
- assayExplanation: Aggregation property of the compound in water at pH 7 assessed as particle size at 100 uM in presence of Triton X-100 by dynamic light scattering method
- Type: physicochemical
- experimentalParameters: buffer, pH 7, 100 µM
Numbers only, in nm.

The following compounds have reported results that may help.
smiles: Cc1ccc(-c2nnc(NC(=O)c3ccc([N+](=O)[O-])o3)o2)c(C)c1
observedProperty: Activity
unitsSymbol: nm
resultValue: 131
//
smiles: CCSc1ccc(C(=O)Nc2nnc(-c3ccco3)o2)cc1
observedProperty: Activity
unitsSymbol: nm
resultValue: 182
//
smiles: Cc1ccc(C)c(-c2nnc(NC(=O)c3ccc([N+](=O)[O-])s3)o2)c1
observedProperty: Activity
unitsSymbol: nm
resultValue: 176

Give one value of Activity per listed compound.
1. O=C(/C=C/c1ccccc1)Nc1nnc(-c2ccc3c(c2)CCCC3)o1
2. Cc1ccc(-c2nnc(NC(=O)c3ccccc3Cl)o2)c(C)c1
3. CCSc1ccc(C(=O)Nc2nnc(-c3ccc4c(c3)CCCC4)o2)cc1

1. 353
2. 203
3. 410

----------
- assayExplanation: Aggregation property of the compound in water at pH 7 assessed as particle size at 100 uM in absence of Triton X-100 by dynamic light scattering method
- Format: physicochemical
- experimentalParameters: buffer, pH 7, 100 µM
Satisfied means recorded Activity is 1000 nm or above; Not satisfied means it is below 1000 nm.

smiles: O=C(Nc1nnc(-c2ccccc2Cl)o1)c1cccc(Oc2ccccc2)c1
assignedClass: Satisfied
--
smiles: Cc1ccc(-c2nnc(NC(=O)c3ccc([N+](=O)[O-])o3)o2)c(C)c1
assignedClass: Not satisfied
--
smiles: CC(C)(C)C(=O)Nc1nnc(-c2ccc(Br)cc2)o1
assignedClass: Satisfied
--
smiles: CSc1ccc2nc(Nc3nc4ccc(NC(C)=O)cc4s3)sc2c1
assignedClass: Satisfied

Quick check, Activity >= 1000 nm? CCOc1ccc(C(=O)Nc2nnc(-c3ccc(C)cc3C)o2)cc1
Satisfied

Quick check, Activity >= 1000 nm? CCCCC(=O)Nc1nnc(-c2ccc3c(c2)CCCC3)o1
Satisfied
